Biological target: T1, CD25 on CD4+CD25+ Treg cells isolated from human PBMCs (human, UniProt P01589 22-272)
T1 sequence (looked up): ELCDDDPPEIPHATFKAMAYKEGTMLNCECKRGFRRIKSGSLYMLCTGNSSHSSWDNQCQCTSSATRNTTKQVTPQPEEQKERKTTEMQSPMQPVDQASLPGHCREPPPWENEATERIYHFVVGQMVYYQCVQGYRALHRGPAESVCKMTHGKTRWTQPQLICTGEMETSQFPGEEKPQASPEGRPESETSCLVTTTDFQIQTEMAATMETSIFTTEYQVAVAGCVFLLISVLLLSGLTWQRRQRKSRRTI
Test: cell-based or functional assay
QUANTITY MEASURED: Relative activity (%) compared with 686, killing Tregs in vitro
Use % as the unit, but write only the number.

Query: Supply measured Relative activity (%) compared with 686, killing Tregs in vitro of chimeric antibody 2046-2H1L1 (antibody, human IgG1, kappa, V domains shown, Chimeric (murine V, human IgG1/kappa); also called 2046-2ix) VH: DVQLQESGPGLVKPSQSLSLTCTVTGYSITSDYAWNWIRHFPGNKLEWMGYITYSGSTVYNPSLKSRISITRDTSKNHFFLQLNSVTTEDTATYYCARWLLQIYYAMDYWGQGTSVTVSS VL: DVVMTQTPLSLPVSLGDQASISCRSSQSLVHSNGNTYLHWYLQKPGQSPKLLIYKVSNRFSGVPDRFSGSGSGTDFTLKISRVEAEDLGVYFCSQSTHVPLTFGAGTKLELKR in your reply.
Response: 584

Query: Supply measured Relative activity (%) compared with 686, killing Tregs in vitro of chimeric antibody 2047-3H8L2 (antibody, human IgG1, kappa, V domains shown, Chimeric, human IgG1/kappa; also called 2047-3ix) VH: QVQLKQSGAELVKPGASVKMSCKTSGYTFTDYVISWVKQRTGQGLEWIGEIYPGSGSTYYNEKFKGKATLTADISSNTAYMQLSSLTSEDSAVYFCASINFDYWGHGTTLTVSS VL: DIVMTQSPATLSVTPGDRVSLSCRASQSISDYLHWYQQKSHESPRLLIKYASQSISGIPSRFSGSGSGSDFTLSINSVEPEDVGVYYCQNGHSFPYTFGGGTKLEIKR in your reply.
Response: 15.2

Query: Supply measured Relative activity (%) compared with 686, killing Tregs in vitro of chimeric antibody 2047-10H1L2 (antibody, human IgG1, kappa, V domains shown, Chimeric, human IgG1/kappa; also called 2047-10ix) VH: QVQLQQSGPELVRPGVSVKISCKGSGYTFTDYAMHWVKQSHAKSLEWIGVISTYNGNTNYNQKFKGKATMTVDKSSSTAYMELARLTSEDSAIYYCARSYGNYPFDYWGQGTTLTVSS VL: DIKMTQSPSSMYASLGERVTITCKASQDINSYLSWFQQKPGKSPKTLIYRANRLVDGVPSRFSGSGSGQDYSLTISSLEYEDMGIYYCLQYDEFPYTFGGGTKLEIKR in your reply.
Response: 314

Query: Supply measured Relative activity (%) compared with 686, killing Tregs in vitro of chimeric antibody 2046-111H2L1 (antibody, human IgG1, kappa, V domains shown, Chimeric, human IgG1/kappa) VH: DVQLQESGPGLVKPSQSLSLTCTVTGHSITSDYAWNWIRQFPGNKLEWMGYISYSGSTIYNPSLKSRISITRDTSKNQFFLQLNSVTTEDTATYYCARWLLQNYYAMDYWGQGTSVTVSS VL: DVVMTQTPLSLPVSLGDQASISCRSSQSLVHSNGNTYLHWYLRKPGQSPKLLIYKVSNRFSGVPDRFSGSGSGTDFTLKISRVEAEDLGVYFCSQSTHVPLTFGAGTKLELKR in your reply.
Response: 145
